biological target: human HSD1 (Homo sapiens)
Sequence (P28845 whole entry): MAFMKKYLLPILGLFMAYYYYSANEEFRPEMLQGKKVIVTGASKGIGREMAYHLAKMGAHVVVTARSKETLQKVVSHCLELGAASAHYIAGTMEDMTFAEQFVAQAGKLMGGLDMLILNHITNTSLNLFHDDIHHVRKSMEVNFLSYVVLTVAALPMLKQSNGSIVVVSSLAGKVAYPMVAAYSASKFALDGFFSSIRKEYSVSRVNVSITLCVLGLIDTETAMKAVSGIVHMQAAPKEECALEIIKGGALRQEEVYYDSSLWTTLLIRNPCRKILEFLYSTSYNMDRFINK
pIC50: −log10 of the molar value.
Form field: pIC50 (one value per entry).

[
  {
    "molecule": "Cc1c(Cl)cccc1S(=O)(=O)N1CCCC(C(=O)NCCCc2ccccc2)C1 (stereo not shown)",
    "systemUnderTest": "human HSD1 (Homo sapiens)",
    "pIC50": 4.92
  },
  {
    "molecule": "O=C(NC1CCCCC1)C1CCCN(S(=O)(=O)c2ccc3ccccc3c2)C1 (stereo not shown)",
    "systemUnderTest": "human HSD1 (Homo sapiens)",
    "pIC50": 7.33
  },
  {
    "molecule": "O=C(NCc1cccc2ccccc12)C1CCCN(S(=O)(=O)c2ccccc2Cl)C1 (stereo not shown)",
    "systemUnderTest": "human HSD1 (Homo sapiens)",
    "pIC50": 7.60
  },
  {
    "molecule": "O=C(NCCc1cccc(Cl)c1)C1CCCN(S(=O)(=O)c2cccc3cccnc23)C1 (stereo not shown)",
    "systemUnderTest": "human HSD1 (Homo sapiens)",
    "pIC50": 6.04
  },
  {
    "molecule": "O=C(NC1CCCc2ccccc21)C1CCCN(S(=O)(=O)c2cccs2)C1 (stereo not shown)",
    "systemUnderTest": "human HSD1 (Homo sapiens)",
    "pIC50": 6.72
  },
  {
    "molecule": "Cc1ccccc1CNC(=O)C1CCCN(S(=O)(=O)c2ccccc2)C1 (stereo not shown)",
    "systemUnderTest": "human HSD1 (Homo sapiens)",
    "pIC50": 5.52
  },
  {
    "molecule": "CCC(COC)NC(=O)C1CCCN(S(=O)(=O)c2ccccc2)C1 (stereo not shown)",
    "systemUnderTest": "human HSD1 (Homo sapiens)",
    "pIC50": 6.03
  },
  {
    "molecule": "CC(C)c1ccc(S(=O)(=O)N2CCCC(C(=O)NC3CCCCC3)C2)cc1 (stereo not shown)",
    "systemUnderTest": "human HSD1 (Homo sapiens)",
    "pIC50": 6.41
  },
  {
    "molecule": "CC(CNC(=O)C1CCCN(S(=O)(=O)c2ccccc2Cl)C1)c1ccccc1 (stereo not shown)",
    "systemUnderTest": "human HSD1 (Homo sapiens)",
    "pIC50": 7.51
  },
  {
    "molecule": "O=C(NC1CCc2ccccc21)C1CCCN(S(=O)(=O)c2ccccc2)C1 (stereo not shown)",
    "systemUnderTest": "human HSD1 (Homo sapiens)",
    "pIC50": 6.41
  }
]
